// reported DC50 for each item listed
Target: KAT2B (Homo sapiens, UniProt Q92831)
Sequence (Q92831 whole entry): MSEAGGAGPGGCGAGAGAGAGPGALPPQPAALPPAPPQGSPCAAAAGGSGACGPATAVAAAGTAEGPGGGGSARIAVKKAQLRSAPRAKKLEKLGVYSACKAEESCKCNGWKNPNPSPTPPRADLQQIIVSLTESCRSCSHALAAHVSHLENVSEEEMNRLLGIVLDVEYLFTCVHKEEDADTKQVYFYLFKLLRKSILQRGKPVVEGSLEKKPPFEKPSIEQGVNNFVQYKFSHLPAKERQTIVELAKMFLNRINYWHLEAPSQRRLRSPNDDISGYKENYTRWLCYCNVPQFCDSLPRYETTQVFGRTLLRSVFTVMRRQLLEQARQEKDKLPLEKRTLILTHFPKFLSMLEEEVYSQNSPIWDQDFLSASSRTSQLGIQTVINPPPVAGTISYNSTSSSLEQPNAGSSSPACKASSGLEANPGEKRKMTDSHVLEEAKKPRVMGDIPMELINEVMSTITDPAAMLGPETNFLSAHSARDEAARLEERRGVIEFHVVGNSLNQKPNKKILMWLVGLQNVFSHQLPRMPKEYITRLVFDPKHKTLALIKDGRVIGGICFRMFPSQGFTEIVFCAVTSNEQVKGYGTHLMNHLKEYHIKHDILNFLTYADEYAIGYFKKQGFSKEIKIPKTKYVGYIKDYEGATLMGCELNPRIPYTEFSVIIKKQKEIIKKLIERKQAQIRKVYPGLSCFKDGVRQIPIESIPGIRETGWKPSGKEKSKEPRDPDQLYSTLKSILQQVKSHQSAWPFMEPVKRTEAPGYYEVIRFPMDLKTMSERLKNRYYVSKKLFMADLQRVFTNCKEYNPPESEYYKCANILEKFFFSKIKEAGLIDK
Assay: KAT2B degradation, Western Blot (Jess), NCI-H1048 cells
Format: cell-based
Set-up: degrader, Western blot (Jess)
Conditions: NCI-H1048 cells, KAT2B, 24 h, Western Blot, vs DMSO; read-out: KAT2B NCI-H1048 DC50

Solved entries:
Cc1c(N[C@@H]2C[C@H](c3ccc(C(=O)N4CCC5(CC4)CCN(c4ccc(C6CCC(=O)NC6=O)c(C(F)(F)F)c4)CC5)cc3)CN(C)C2)cnn(C)c1=O (stereo partly shown) | > 30 nM
CN1C[C@H](Nc2ccn(C)c(=O)c2Br)C[C@H](c2ccc(C(=O)N3CCC4(CCC(c5ccc(C6CCC(=O)NC6=O)cc5)CC4)CC3)cc2)C1 (stereo partly shown) | < 1 nM
CN1C[C@H](Nc2cnn(C)c(=O)c2Br)C[C@H](c2ccc(C(=O)N3CCC4(CC3)CCN(c3ccc5c(C6CCC(=O)NC6=O)nn(C)c5c3)CC4)cc2)C1 (stereo partly shown) | < 1 nM
Cc1ncsc1-c1ccc(CNC(=O)[C@@H]2C[C@@H](O)CN2C(=O)[C@@H](NC(=O)CCCCCNC(=O)c2ccc([C@H]3C[C@@H](Nc4cnn(C)c(=O)c4Br)CN(C)C3)cc2)C(C)(C)C)cc1 | > 30 nM
CN1C[C@H](Nc2cnn(C)c(=O)c2Br)C[C@H](c2ccc(CN3CCN(c4ccc(F)c(C5CCC(=O)NC5=O)c4)CC3)cc2)C1 (stereo partly shown) | 1 to 30 nM
CN1C[C@H](Nc2cnn(C)c(=O)c2Br)C[C@H](c2ccc(C(=O)N3CCC4(CC3)CCN(c3ccc(C5CCC(=O)NC5=O)cc3)CC4)cc2)C1 (stereo partly shown) [Compound 90] | < 1 nM
Cc1c(N[C@@H]2C[C@H](c3ccc(C(=O)N4CCC5(CC4)CCN(c4ccc(C6CCC(=O)NC6=O)nc4)CC5)cc3)CN(C)C2)cnn(C)c1=O (stereo partly shown) | 1 to 30 nM
CN1C[C@H](Nc2cnn(C)c(=O)c2Cl)C[C@H](c2ccc(C(=O)N3CCC4(CC3)CCN(c3ccc(OC5CCC(=O)NC5=O)cc3)CC4)cc2)C1 (stereo partly shown) | 1 to 30 nM
CN1C[C@H](Nc2cnn(C)c(=O)c2Cl)C[C@H](c2ccc(C(=O)N3CCC4(CC3)CCN(c3ccc5c(c3)oc(=O)n5C3CCC(=O)NC3=O)CC4)cc2)C1 (stereo partly shown) | < 1 nM
CN1C[C@H](Nc2cnn(C)c(=O)c2Cl)C[C@H](c2ccc(C(=O)N3CCC4(CC3)CCN(c3ccc(C5CCC(=O)NC5=O)nc3)CC4)cc2)C1 (stereo partly shown) | 1 to 30 nM

# query: DC50 | item CN1C[C@H](Nc2cnn(C)c(=O)c2Cl)C[C@H](c2ccc(C(=O)N3CCC4(CC3)CCN(c3cc(F)c(C5CCC(=O)NC5=O)cc3F)CC4)cc2)C1 (stereo partly shown) | system: KAT2B (Homo sapiens, UniProt Q92831)
< 1 nM

# query: DC50 | item CN1C[C@H](Nc2cnn(C)c(=O)c2Cl)C[C@H](c2ccc(C(=O)N3CCC4(CC3)CCN(c3ccc5c(N6CCC(=O)NC6=O)nccc5c3)CC4)cc2)C1 | system: KAT2B (Homo sapiens, UniProt Q92831)
> 30 nM
